# Assayed target: JAK-1 (Homo sapiens)
# Assay name: JAK enzymatic assay (Eurofins KinaseProfiler/IC50Profiler, radiometric), JAK-1
pIC50: −log10 of the molar value.
Assay metric: pIC50

Quick one: pIC50 of CN(C)S(=O)(=O)c1ccc(NC(=O)CCN2CCN(c3nc[nH]c4nccc3-4)CC2)cc1 ?
6.30 to 6.60

Try the compound CCCNS(=O)(=O)c1ccc(NC(=O)CN2CCN(c3ncnc4[nH]ccc34)CC2)cc1
> 6.60

Could you do the same for O=C(CCN1CCN(c2nc[nH]c3nccc2-3)CC1)Nc1cccc(S(=O)(=O)N2CCCC2)c1 , please?
6.00 to 6.30

Repeat for the following compound: NS(=O)(=O)c1cccc(NC(=O)CCN2CCN(c3nc[nH]c4nccc3-4)CC2)c1
6.00 to 6.30

How about CC(C(=O)Nc1ccc(S(=O)(=O)N2CCCCC2)cc1)N1CCN(c2ncnc3[nH]ccc23)CC1 (stereo not shown) ?
6.00 to 6.30

Item: O=C(CN1CCN(c2nc[nH]c3nccc2-3)CC1)N1CCN(C(=O)Nc2ccccc2)CC1
6.30 to 6.60

Also need CC1CCCN(C(=O)C2CCN(C(=O)CN3CCN(c4nc[nH]c5nccc4-5)CC3)CC2)C1 (stereo not shown) , thanks.
< 6.00

Now the compound CNS(=O)(=O)c1ccc(NC(=O)CN2CCN(c3ncnc4[nH]ccc34)CC2)cc1
> 6.60

Field entry: NS(=O)(=O)c1cccc(NC(=O)CN2CCN(c3nc[nH]c4nccc3-4)CC2)c1
> 6.60

Same question for O=C(CN1CCN(c2nc[nH]c3nccc2-3)CC1)N1CCC(Cc2ccccc2)CC1 please.
6.30 to 6.60

Another compound to check: CCCCNS(=O)(=O)c1ccc(NC(=O)CN2CCN(c3ncnc4[nH]ccc34)CC2)cc1
> 6.60

# iterate: COc1cc(NC(=O)CN2CCN(c3ncnc4[nH]ccc34)CC2)ccc1S(=O)(=O)N(C)C
6.00 to 6.30

Okay, and CN(C)S(=O)(=O)c1ccc(NC(=O)CN2CCN(c3ncnc4[nH]ccc34)CC2)cc1F ?
6.30 to 6.60

// query: CC(C)NS(=O)(=O)c1ccc(NC(=O)C(C)N2CCN(c3ncnc4[nH]ccc34)CC2)cc1 (stereo not shown)
6.30 to 6.60

Lookup CN(C)S(=O)(=O)c1cccc(NC(=O)CN2CCN(c3nc[nH]c4nccc3-4)CC2)c1
6.00 to 6.30

Consider next the compound O=C(Nc1ccccc1)C1CCN(C(=O)CN2CCN(c3ncnc4[nH]ccc34)CC2)CC1 in the same way.
6.30 to 6.60

###

I'd be grateful if you could share measured JAK1/JAK2 selectivity for these entries.
# Assayed target: JAK-1 (Homo sapiens, UniProt P23458)
# Sequence (P23458 whole entry): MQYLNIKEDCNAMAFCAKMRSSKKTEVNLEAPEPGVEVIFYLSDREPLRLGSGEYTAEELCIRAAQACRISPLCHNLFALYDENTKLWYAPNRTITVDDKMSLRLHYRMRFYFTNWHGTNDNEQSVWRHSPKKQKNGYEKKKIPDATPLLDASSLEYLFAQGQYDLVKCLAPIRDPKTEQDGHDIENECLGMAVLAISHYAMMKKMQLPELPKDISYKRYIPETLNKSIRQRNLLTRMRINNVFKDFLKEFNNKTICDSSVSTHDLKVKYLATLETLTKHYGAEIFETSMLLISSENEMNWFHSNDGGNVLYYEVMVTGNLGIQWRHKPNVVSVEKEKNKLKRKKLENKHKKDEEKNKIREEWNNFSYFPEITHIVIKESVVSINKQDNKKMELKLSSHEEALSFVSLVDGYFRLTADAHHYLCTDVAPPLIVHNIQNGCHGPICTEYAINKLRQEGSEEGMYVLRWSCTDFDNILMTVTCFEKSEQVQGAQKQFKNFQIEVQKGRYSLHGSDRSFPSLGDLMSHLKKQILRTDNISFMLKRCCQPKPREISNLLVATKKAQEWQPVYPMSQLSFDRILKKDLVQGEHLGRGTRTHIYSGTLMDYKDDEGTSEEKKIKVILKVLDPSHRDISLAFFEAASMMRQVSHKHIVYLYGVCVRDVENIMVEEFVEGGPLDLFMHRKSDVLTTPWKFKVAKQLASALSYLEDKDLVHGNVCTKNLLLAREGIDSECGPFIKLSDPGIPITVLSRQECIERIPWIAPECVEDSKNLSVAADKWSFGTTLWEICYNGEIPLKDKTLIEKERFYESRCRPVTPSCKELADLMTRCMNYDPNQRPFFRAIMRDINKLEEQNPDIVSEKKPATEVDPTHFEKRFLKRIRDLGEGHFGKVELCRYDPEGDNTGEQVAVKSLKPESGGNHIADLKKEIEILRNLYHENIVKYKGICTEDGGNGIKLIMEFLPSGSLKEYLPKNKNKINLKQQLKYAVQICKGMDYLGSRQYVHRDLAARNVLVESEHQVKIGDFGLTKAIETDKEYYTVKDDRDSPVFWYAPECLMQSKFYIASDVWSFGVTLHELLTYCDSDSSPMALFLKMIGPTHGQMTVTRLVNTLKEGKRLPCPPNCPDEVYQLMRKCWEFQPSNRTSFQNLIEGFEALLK
# Assay name: JAK enzymatic assay (Eurofins KinaseProfiler/IC50Profiler, radiometric), JAK-1
# Settings: selectivity IC50 ratio for JAK1 versus JAK2, human enzymes
Respond numerically, and do not add a unit to the figure.

Quick one: JAK1/JAK2 selectivity for O=C(Nc1ccccc1)C1CCN(C(=O)CN2CCN(c3ncnc4[nH]ccc34)CC2)CC1 ?
19

Now consider CCCNS(=O)(=O)c1ccc(NC(=O)CN2CCN(c3ncnc4[nH]ccc34)CC2)cc1 and answer again.
4

Same question for O=C(CN1CCN(c2nc[nH]c3nccc2-3)CC1)Nc1cccc(S(=O)(=O)N2CCCC2)c1 please.
23

Please do the same for CC(C(=O)Nc1ccc(S(=O)(=O)N2CCCCC2)cc1)N1CCN(c2ncnc3[nH]ccc23)CC1 (stereo not shown) as well.
2
